measurement_type: melting point

>>> value_reported("COC(=O)c1ccc(C)c(-n2c(C)cc(OCc3ccccc3CNC(=O)Nc3cc(C(C)(C)C)nn3-c3ccc(O)c(Cl)c3)c(Cl)c2=O)c1")
"185 to 186 °C"
>>> value_reported("COC(=O)c1ccc(C)c(-n2c(C)cc(OCc3ccc(F)cc3CNC(=O)Nc3cc(C(C)(C)C)nn3-c3ccc(O)c(Cl)c3)c(Cl)c2=O)c1")
"197 to 200 °C"
>>> value_reported("Cc1ccc(C(=O)NCCN(C)C)cc1-n1c(C)cc(OCc2ccccc2CNC(=O)Nc2cc(C(C)(C)C)nn2-c2ccc(Cl)c(O)c2)c(Cl)c1=O")
"185 to 186 °C"
>>> value_reported("COCCNC(=O)c1ccc(C)c(-n2c(C)cc(OCc3ccccc3CNC(=O)Nc3cc(C(C)(C)C)nn3-c3ccc(O)c(Cl)c3)c(Cl)c2=O)c1")
"179 to 180 °C"
>>> value_reported("Cc1ccc(C(=O)NCCO)cc1-n1c(C)cc(OCc2ccccc2CNC(=O)Nc2cc(C(C)(C)C)nn2-c2cccc(OCCO)c2)c(Cl)c1=O")
"162 to 163 °C"

query: State the recorded melting point for this entry: COC(=O)c1ccc(C)c(-n2c(C)cc(OCc3ccccc3CNC(=O)Nc3cc(C(C)(C)C)nn3-c3ccc(O)cc3)c(Cl)c2=O)c1
result: 199 to 200 °C

query: Sample Cc1ccc(C(=O)NC(C)C(N)=O)cc1-n1c(C)cc(OCc2ccccc2CNC(=O)Nc2cc(C(C)(C)C)nn2-c2ccc(O)c(Cl)c2)c(Cl)c1=O (stereo in doubt) — what was its melting point?
result: 192 to 193 °C

---

Recorded melting point by entry

// worked examples, melting point included
>>> value_reported("COCCNC(=O)c1ccc(C)c(-n2c(C)cc(OCc3ccc(F)cc3CNC(=O)Nc3cc(C(C)(C)C)nn3-c3ccc(Cl)c(O)c3)c(Cl)c2=O)c1")
"186 to 187 °C"
>>> value_reported("Cc1ccc(C(=O)NCCN(C)C)cc1-n1c(C)cc(OCc2ccccc2CNC(=O)Nc2cc(C(C)(C)C)nn2-c2cccc(OCCO)c2)c(Cl)c1=O")
"164 to 165 °C"
>>> value_reported("Cc1ccc(C(=O)OCCO)cc1-n1c(C)cc(OCc2ccc(F)cc2CNC(=O)Nc2cc(C(C)(C)C)nn2-c2cccc(OCCO)c2)c(Cl)c1=O")
"180 to 181 °C"
>>> value_reported("Cc1ccc(C(=O)NCC(O)CO)cc1-n1c(C)cc(OCc2ccccc2CNC(=O)Nc2cc(C(C)(C)C)nn2-c2ccc(O)c(Cl)c2)c(Cl)c1=O (stereo not drawn)")
"173 to 175 °C"
>>> value_reported("CNC(=O)c1ccc(C)c(-n2c(C)cc(OCc3ccccc3CNC(=O)Nc3cc(C(C)(C)C)nn3-c3cccc(OCCO)c3)c(Cl)c2=O)c1")
"168 to 170 °C"

Please examine the following record next.
query: # get_value(readout='melting point', item= CNC(=O)c1ccc(C)c(-n2c(C)cc(OCc3ccccc3CNC(=O)Nc3cc(C(C)(C)C)nn3-c3ccc(Cl)c(O)c3)c(Cl)c2=O)c1 )
result: 201 to 203 °C

---

Target: p38α (Homo sapiens)
Test: p38α/MK2 cascade assay
Assay type: biochemical
Details: Table 2; same p38α/MK2 cascade assay; 40 minutes preincubation; read-out: p38a/MK2 Cascade 40 min Pre-Incuabtion (% Inhibition): IC50
pIC50: −log10 of the molar value.
measurement_type: pIC50

Worked examples, 2 compounds total:
>>> value_reported("Cc1ccc(C(=O)NCCN(C)C)cc1-n1c(C)cc(OCc2ccccc2CNC(=O)Nc2cc(C(C)(C)C)nn2-c2cccc(OCCO)c2)c(Cl)c1=O")
8.68
>>> value_reported("CNC(=O)c1ccc(C)c(-n2c(C)cc(OCc3ccc(F)cc3CNC(=O)Nc3cc(C(C)(C)C)nn3-c3ccc(C)cc3)c(Cl)c2=O)c1")
8.43

A: COc1ccc(Cn2c(C)cc(OCc3ccc(F)cc3CNC(=O)Nc3cc(C(C)(C)C)nn3-c3ccc(Cl)c(O)c3)c(Cl)c2=O)cc1
B: Cc1ccc(C(=O)N[C@@H](C)C(N)=O)cc1-n1c(C)cc(OCc2ccccc2CNC(=O)Nc2cc(C(C)(C)C)nn2-c2ccc(O)cc2)c(Cl)c1=O
query: Please indicate which has the smaller reported pIC50: A , or B . When you have decided, please share the label of that item.
result: A
(A: 8.51, B: 8.85)

1: COCCNC(=O)c1ccc(C)c(-n2c(C)cc(OCc3ccccc3CNC(=O)Nc3cc(C(C)(C)C)nn3-c3ccc(O)cc3)c(Cl)c2=O)c1
2: COc1ccc(Cn2c(C)cc(OCc3ccccc3CNC(=O)Nc3cc(C(C)(C)C)nn3-c3ccc(C)cc3)c(C)c2=O)c(OC)c1
query: Which record shows the lower pIC50: the first, 1 , or the second, 2 ? // caller expects the label of the chosen entry
result: 2

---

Target: UniProt Q16539
Assay: p38α/MK2 cascade assay
Type: biochemical
Conditions: Table 2; same p38α/MK2 cascade assay; 40 minutes preincubation; read-out: p38a/MK2 Cascade 40 min Pre-Incuabtion (% Inhibition): IC50
measurement_type: IC50 (nM)

Below are worked cases with known answers.
>>> value_reported("Cc1cc(OCc2ccccc2CNC(=O)Nc2cc(C(C)(C)C)nn2-c2ccc(O)c(Cl)c2)c(Cl)c(=O)n1Cc1cccc(CNC(=O)CO)c1")
8.9
>>> value_reported("CNC(=O)c1ccc(C)c(-n2c(C)cc(OCc3ccc(F)cc3CNC(=O)Nc3cc(C(C)(C)C)nn3-c3cccc(OC)c3)c(Cl)c2=O)c1")
1.79
>>> value_reported("COc1ccc(Cn2c(C)cc(OCc3ccccc3CNC(=O)Nc3cc(C(C)(C)C)nn3-c3ccccc3)c(C)c2=O)cc1")
11.2
>>> value_reported("CSc1ccccc1Cn1c(C)cc(OCc2ccccc2CNC(=O)Nc2cc(C(C)(C)C)nn2-c2ccc(O)cc2)c(Cl)c1=O")
23.6
>>> value_reported("Cc1ccc(C(=O)NCCO)cc1-n1c(C)cc(OCc2ccccc2CNC(=O)Nc2cc(C(C)(C)C)nn2-c2ccc(O)cc2)c(Cl)c1=O")
1.8

P: CSc1ccccc1Cn1c(C)cc(OCc2ccccc2CNC(=O)Nc2cc(C(C)(C)C)nn2-c2ccc(O)cc2)c(C)c1=O
Q: CNC(=O)c1ccc(C)c(-n2c(C)cc(OCc3ccccc3CNC(=O)Nc3cc(C(C)(C)C)nn3-c3ccc(O)c(Cl)c3)c(Cl)c2=O)c1
R: Cc1ccc(C(=O)NCCN(C)C)cc1-n1c(C)cc(OCc2ccccc2CNC(=O)Nc2cc(C(C)(C)C)nn2-c2ccc(O)c(Cl)c2)c(Cl)c1=O
S: COc1ccc(Cn2c(C)cc(OCc3ccccc3CNC(=O)Nc3cc(C(C)(C)C)nn3-c3cccc(OCCO)c3)c(Cl)c2=O)cc1Cl
query: Please rank these compounds by IC50 in descending order. Sort the labels as requested; that list is your answer.
result: P, S, Q, R

---

A collection of compounds and their measured melting point

>>> value_reported("Cc1ccc(C(=O)NCCN(C)C)cc1-n1c(C)cc(OCc2ccccc2CNC(=O)Nc2cc(C(C)(C)C)nn2-c2ccc(O)c(Cl)c2)c(Cl)c1=O")
"181 to 182 °C"
>>> value_reported("Cc1ccc(C(=O)NCC(O)CO)cc1-n1c(C)cc(OCc2ccccc2CNC(=O)Nc2cc(C(C)(C)C)nn2-c2ccc(Cl)c(O)c2)c(Cl)c1=O (stereo not drawn)")
"169 to 171 °C"

query: Name the reported melting point value associated with the compound Cc1ccc(C(=O)NCC(O)CO)cc1-n1c(C)cc(OCc2ccccc2CNC(=O)Nc2cc(C(C)(C)C)nn2-c2cccc(OCCO)c2)c(Cl)c1=O (stereo not drawn)
result: 158 to 160 °C

---

We begin with a simple list: items and their reported melting point.

Previously resolved entries follow.
>>> value_reported("Cc1ccc(C(=O)NCCN(C)C)cc1-n1c(C)cc(OCc2ccc(F)cc2CNC(=O)Nc2cc(C(C)(C)C)nn2-c2cccc(OCCO)c2)c(Cl)c1=O")
"158 to 160 °C"
>>> value_reported("Cc1ccc(C(=O)NCC(N)=O)cc1-n1c(C)cc(OCc2ccccc2CNC(=O)Nc2cc(C(C)(C)C)nn2-c2ccc(O)c(Cl)c2)c(Cl)c1=O")
"228 to 230 °C"

The record that follows has no melting point shown yet.
query: Please give the measured melting point for this compound: COCCNC(=O)c1ccc(C)c(-n2c(C)cc(OCc3ccccc3CNC(=O)Nc3cc(C(C)(C)C)nn3-c3cccc(OCCO)c3)c(Cl)c2=O)c1
result: 143 to 145 °C

---

Target: p38α (Homo sapiens, UniProt Q16539)
Sequence (Q16539 whole entry): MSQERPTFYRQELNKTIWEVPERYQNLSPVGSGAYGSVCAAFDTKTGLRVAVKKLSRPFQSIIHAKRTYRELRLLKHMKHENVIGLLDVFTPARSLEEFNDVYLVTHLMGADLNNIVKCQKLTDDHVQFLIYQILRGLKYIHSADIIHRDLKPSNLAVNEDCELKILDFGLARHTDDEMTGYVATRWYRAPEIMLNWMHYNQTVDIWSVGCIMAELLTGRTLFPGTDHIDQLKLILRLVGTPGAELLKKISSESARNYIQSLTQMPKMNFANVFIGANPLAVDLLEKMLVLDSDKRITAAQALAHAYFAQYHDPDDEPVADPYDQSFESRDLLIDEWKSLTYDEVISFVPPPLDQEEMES
Assay: p38α/MK2 cascade assay
Assay type: biochemical
Conditions: Table 1; inhibitors preincubated with p38α for 40 minutes; phosphorylation of Hsp27 peptide by MK-2, Caliper LabChip 3000; read-out: p38a/MK2 Cascade 40 min Pre-Incuabtion (% Inhibition): IC50
measurement_type: IC50 (nM)

>>> value_reported("COc1ccc(Cn2c(C)cc(OCc3ccccc3CNC(=O)Nc3cc(C(C)(C)C)nn3-c3cccc(F)c3)c(Br)c2=O)cc1 [Example 97]")
3.9
>>> value_reported("CCc1c(OCc2ccccc2CNC(=O)Nc2cc(C(C)(C)C)nn2-c2cccc(OC)c2)ncn(Cc2ccc(OC)cc2)c1=O [Example 115]")
25.8
>>> value_reported("COc1ccc(Cn2c(C)cc(OCc3ccccc3CNC(=O)Nc3cc(C(C)(C)C)nn3-c3cccc(Cl)c3)c(Br)c2=O)cc1 [Example 98]")
4.23
>>> value_reported("COc1ccc(Cn2c(C)cc(OCc3ccccc3CNC(=O)Nc3cc(C(C)(C)C)nn3-c3ccc(C)cc3)c(Br)c2=O)cc1 [Example 101]")
8.19
>>> value_reported("COc1cccc(Cn2c(C)cc(OCc3ccc(F)cc3CNC(=O)Nc3cc(C(C)(C)C)nn3-c3ccc(O)c(Cl)c3)c(Cl)c2=O)c1 [Example 46]")
4

1: COC(=O)c1ccc(C)c(-n2c(C)cc(OCc3ccc(F)cc3CNC(=O)Nc3cc(C(C)(C)C)nn3-c3ccc(C)cc3)c(Br)c2=O)c1 [Example 185]
2: COc1cccc(-n2nc(C(C)(C)C)cc2NC(=O)NCc2ccccc2COc2cc(C)n(Cc3ccc(OC)cc3OC)c(=O)c2C)c1 [Example 123]
query: For the pair 1 and 2 , which entry has the numerically smaller recorded IC50? Field: selected label. Fill in the label of the entry you choose.
result: 1
(1: 3.61 nM, 2: 11.1 nM)

P: COc1cccc(Cn2c(C)cc(OCc3ccc(F)cc3CNC(=O)Nc3cc(C(C)(C)C)nn3-c3cccc(OCCOC4CCCCO4)c3)c(Cl)c2=O)c1 (stereo not drawn) [Example 41]
Q: COC(=O)c1ccc(C)c(-n2c(C)cc(OCc3ccc(F)cc3CNC(=O)Nc3cc(C(C)(C)C)nn3-c3ccc(C)cc3)c(Cl)c2=O)c1 [Example 181]
R: Cc1ccc(-n2nc(C(C)(C)C)cc2NC(=O)NCc2cc(F)ccc2COc2cc(C)n(-c3cc(C(=O)NCCO)ccc3C)c(=O)c2Br)cc1 [Example 193]
S: COc1cccc(Cn2c(C)cc(OCc3ccccc3CNC(=O)Nc3cc(C(C)(C)C)nn3-c3cccc(OCCO)c3)c(C)c2=O)c1 [Example 48]
query: Put the entries in order of IC50, starting with the largest number. Returns: the labels listed in the requested order.
result: P, S, Q, R
(P: 21.6 nM, S: 6.4 nM, Q: 3.31 nM, R: 2.21 nM)

Hey, just so you know, these numbers are from patent US20090270350A1.
